Origin of measurements: the supplement of paper PMC8728848

# system name: Fuc(a1-3)[Gal(b1-4)]GlcNAc(b1-6)[Neu5Ac(a2-3)Gal(b1-3)]GalNAc
# assay comment: glycan array binding signal (z-score within array); higher = stronger binding
# stated conditions: glycan notation: IUPAC condensed, linker removed
About 410 targets per protein were measured; listed, in parts, are those with the strongest signals and a random draw of the rest.

binder	glycan array binding signal (z-score)
Intelectin-1a (Mus musculus) (protein) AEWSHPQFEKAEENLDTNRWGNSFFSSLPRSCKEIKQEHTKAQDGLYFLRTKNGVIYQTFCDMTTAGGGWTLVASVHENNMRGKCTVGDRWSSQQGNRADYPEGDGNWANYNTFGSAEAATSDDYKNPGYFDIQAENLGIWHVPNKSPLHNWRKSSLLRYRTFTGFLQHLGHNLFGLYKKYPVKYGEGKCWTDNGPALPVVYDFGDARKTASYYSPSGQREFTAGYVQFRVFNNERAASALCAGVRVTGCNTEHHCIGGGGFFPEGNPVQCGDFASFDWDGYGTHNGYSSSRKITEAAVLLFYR	-0.328
